Test system: C6#4 cells
condition label: read-out: WST-1 (EC-50)
property label: pEC50
pEC50 here: minus log base 10 of the concentration, concentration in moles per litre.

{"compound": "COc1cc(-c2cnc3c(Nc4ccccc4)nccn23)ccc1O [LG2-62]", "val": 4.52}
{"compound": "COc1cc(OC)cc(-c2cnc3c(NCC4CC4)nccn23)c1 [LG2-102]", "val": 4.28}
{"compound": "CC(=O)c1cccc(-c2cnc3c(Nc4ccc(N5CCOCC5)cc4)nccn23)c1 [LG2-81]", "val": 4.41}
{"compound": "c1ccc(Oc2ccc(Nc3nccn4c(-c5ccc6[nH]ccc6c5)cnc34)cc2)cc1 [LG2-7]", "val": 4.45}
{"compound": "CN(C)CCNC(=O)c1ccc(-c2cnc3c(Nc4ccc(Oc5ccccc5)cc4)nccn23)cc1 [LG2-11]", "val": 4.71}

Prompt line: // pEC50 lookup, key: c1ccc2c(-c3cnc4c(Nc5ccc6[nH]ccc6c5)nccn34)cccc2c1 [LG2-89]
Response line: 4.45

Prompt line: Item COc1cccc(-c2cnc3c(Nc4ccccc4)nccn23)c1 [LG2-85] has what recorded pEC50?
Response line: 4.32

Prompt line: Quick check: pEC50 of COc1cc(Nc2nccn3c(-c4cccc(C(C)=O)c4)cnc23)cc(OC)c1OC [LG2-75] ?
Response line: 4.78
